Target: human noradrenaline transporter (hNET) (Homo sapiens, UniProt P23975)
Construct: expressed in transfected cells; host or cells: COS-7 cells (ATCC), transient transfection with metafectene
Sequence (P23975 whole entry): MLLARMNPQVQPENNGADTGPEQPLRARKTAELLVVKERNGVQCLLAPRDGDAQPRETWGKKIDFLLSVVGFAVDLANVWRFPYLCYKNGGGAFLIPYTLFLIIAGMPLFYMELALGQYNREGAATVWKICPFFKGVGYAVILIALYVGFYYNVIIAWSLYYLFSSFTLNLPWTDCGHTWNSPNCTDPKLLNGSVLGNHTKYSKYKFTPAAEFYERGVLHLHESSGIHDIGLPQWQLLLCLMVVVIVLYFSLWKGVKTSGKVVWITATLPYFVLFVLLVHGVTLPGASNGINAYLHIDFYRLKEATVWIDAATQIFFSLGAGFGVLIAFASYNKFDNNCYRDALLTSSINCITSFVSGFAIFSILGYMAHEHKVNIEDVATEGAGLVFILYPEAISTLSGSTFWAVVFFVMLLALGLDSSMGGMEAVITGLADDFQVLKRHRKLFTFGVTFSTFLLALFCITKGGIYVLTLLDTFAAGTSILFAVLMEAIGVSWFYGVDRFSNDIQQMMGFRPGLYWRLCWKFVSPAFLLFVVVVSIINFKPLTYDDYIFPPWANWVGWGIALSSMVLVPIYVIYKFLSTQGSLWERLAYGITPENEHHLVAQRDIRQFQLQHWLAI
Experiment: biochemical
Format: binding
Details: Av IC50 Displacement of 3H-nisoxetine from hNET
Residues, ends and D or L forms follow the SMILES beside them.
In this section, each of the compounds is paired with its reported pIC50.
# pIC50 = -log10(concentration in molar units)

Below are worked cases with known answers.
The compound CC(C)C[C@@H]1NC(=O)[C@H](CCCCN)NC(=O)[C@H](Cc2ccc(O)cc2)NC(=O)CNC(=O)[C@@H]2CSSC[C@H](NC1=O)C(=O)N[C@H](C(N)=O)CSSC[C@H](NC(=O)[C@@H](N)C(C)C)C(=O)N2 [compound 148] (HELM PEPTIDE1{V.C.C.G.Y.K.L.C.C.[am]}$PEPTIDE1,PEPTIDE1,2:R3-9:R3|PEPTIDE1,PEPTIDE1,3:R3-8:R3$$$V2.0) showed pIC50 equal to 5.50

The compound CC(C)C[C@@H]1NC(=O)[C@H](CCC(N)=O)NC(=O)[C@H](Cc2ccc(O)cc2)NC(=O)CNC(=O)[C@@H]2CSSC[C@H](NC1=O)C(=O)N[C@@H](Cc1c[nH]cn1)C(=O)N1CCC[C@H]1C(=O)N[C@H](C(N)=O)CSSC[C@H](NC(=O)[C@@H](NC(=O)CNC(=O)[C@@H](N)CC(N)=O)C(C)C)C(=O)N2 [compound 194] (HELM PEPTIDE1{N.G.V.C.C.G.Y.Q.L.C.H.P.C.[am]}$PEPTIDE1,PEPTIDE1,4:R3-13:R3|PEPTIDE1,PEPTIDE1,5:R3-10:R3$$$V2.0) showed pIC50 equal to 3.91

---
The compound "CC(C)C[C@@H]1NC(=O)[C@H](CCCCN)NC(=O)[C@H](Cc2ccc(O)cc2)NC(=O)CNC(=O)[C@@H]2CSSC[C@H](NC1=O)C(=O)N[C@@H](Cc1c[nH]cn1)C(=O)N[C@@H](C)C(=O)N[C@H](C(N)=O)CSSC[C@H](NC(=O)[C@@H](NC(=O)CNC(=O)[C@H](CCCNC(=N)N)NC(=O)[C@@H](N)Cc1c[nH]c3ccccc13)C(C)C)C(=O)N2" showed pIC50 equal to 6.80
